System: corn
assay text: Test A pre-/postemergence herbicide test
Type: in vivo, Zea mays
reported conditions: Postemergence, 125 g ai/ha; 0 to 100 scale, 0 no effect, 100 complete control
Please go through the items and note down their Plant response rating, Corn.
One number for each entry.

These solved cases illustrate the format of a correct answer.
| compound | Plant response rating, Corn |
| --- | --- |
| O=C1NC[C@@H](c2ccc(F)c(F)c2)[C@@H]1C(=O)Nc1ccccc1F [Compound 102] | 0 |
| O=C1NCC(c2ccsc2)C1C(=O)Nc1ccccc1C(F)(F)F (racemic) [Compound 28] | 0 |
| O=C1NCC(c2ccc(Cl)nc2)C1C(=O)Nc1ccccc1C(F)(F)F (stereo not drawn) [Compound 42] | 0 |
| Cc1ccc(C2CNC(=O)C2C(=O)Nc2ccccc2F)cc1F (racemic) [Compound 144] | 0 |
| O=C1NCC(c2ccc(F)c(C(F)(F)F)c2)C1C(=O)Nc1ccccc1C(F)(F)F (racemic) [Compound 78] | 20 |
| Cc1ccc(C2CNC(=O)C2C(=O)Nc2cccc(F)c2F)cc1 (racemic) [Compound 151] | 0 |
| O=C1NCC(c2ccc(F)c(F)c2)C1C(=O)Nc1cccc(F)c1F (racemic) [Compound 107] | 0 |
| O=C1NCC(c2cccc(OC(F)(F)C(F)F)c2)C1C(=O)Nc1ccc(F)cc1F (racemic) [Compound 122] | 40 |

For each entry beneath this line, provide reported Plant response rating, Corn.
1. O=C1NCC(c2cccc(C(F)(F)F)c2)C1C(=O)Nc1nncs1 (racemic) [Compound 111]
2. N#Cc1ccccc1NC(=O)C1C(=O)NCC1c1ccc(Cl)c(Cl)c1 (racemic) [Compound 15]
3. COc1cccc(NC(=O)C2C(=O)NCC2c2ccc(F)c(F)c2)n1 (stereo not drawn) [Compound 58]
4. O=C1NCC(c2ccc(F)c(F)c2)C1C(=O)Nc1ccccc1Br (stereo not drawn) [Compound 55]
5. N#Cc1ccccc1NC(=O)C1C(=O)NCC1c1ccccc1 (racemic) [Compound 86]
6. O=C1NCC(c2ccc(F)cc2)C1C(=O)Nc1cccc(F)c1F (racemic) [Compound 119]
7. CC1NC(=O)C(C(=O)Nc2ccccc2F)C1c1ccc(F)c(F)c1 (mixture of isomers) [Compound 8]

1. 0
2. 0
3. 0
4. 0
5. 0
6. 30
7. 0

Each recorded value in this set is attributed to patent US10294202B2.
